pest or weed control at 250 g/ha by entry:
# Tested on: Alopecurus myosuroides (ALOMY)
# Protocol Details: Glasshouse assay for herbicidal activity (pre- and post-emergence), percentage phytotoxicity
# Type: in vivo
# Condition Parameters: Alopecurus myosuroides, pre-emergence, 480 h, Rate 250 g/ha; pre-emergence; assessed visually 20 DAA; 100%=total damage, 0%=no damage; read-out: Pre-emergence herbicidal activity (percentage phytotoxicity) ALOMY PRE
Readout: pest or weed control at 250 g/ha (%)

[[record]]
compound = "Cc1cc(C)c(C2C(=O)CC(CC(=O)NCC(C)(C)C)C2=O)c(C)c1 (stereo not drawn)"
experimental_result = 90

[[record]]
compound = "CC#Cc1cc(C)c(C2C(=O)CC(CC(=O)NCC(C)(C)C)C2=O)c(CC)c1 (stereo not drawn)"
experimental_result = 90

[[record]]
compound = "Cc1cc(C)c(C2C(=O)CC(CC(=O)NCc3cccc(C(F)(F)F)c3)C2=O)c(C)c1 (stereo not drawn)"
experimental_result = 90

[[record]]
compound = "CC#Cc1cc(C)c(C2C(=O)CC(CC(=O)NC(C)C)C2=O)c(CC)c1 (stereo not drawn)"
experimental_result = 100

[[record]]
compound = "CC#Cc1cc(C)c(C2C(=O)CC(CC(=O)NCCCC)C2=O)c(CC)c1 (stereo not drawn)"
experimental_result = 100

[[record]]
compound = "COc1ccccc1CNC(=O)CC1CC(=O)C(c2c(C)cc(C)cc2C)C1=O (stereo not drawn)"
experimental_result = 0

[[record]]
compound = "CCC(C)(C)NC(=O)CC1CC(=O)C(c2c(C)cc(-c3ncc(Cl)cc3F)cc2C)C1=O (stereo not drawn)"
experimental_result = 100

[[record]]
compound = "Cc1cc(-c2ccc(C#N)cc2)cc(C)c1C1C(=O)CC(CC(=O)NC(C)C)C1=O (stereo not drawn)"
experimental_result = 90

[[record]]
compound = "CC#Cc1cc(C)c(C2C(=O)CC(CC(=O)NCC(=O)C(C)(C)C)C2=O)c(C)c1 (stereo not drawn)"
experimental_result = 100

[[record]]
compound = "Cc1cc(-c2ncc(Cl)cc2F)cc(C)c1C1C(=O)CC(CC(=O)NC(C)c2ccc(F)cc2)C1=O (stereo not drawn)"
experimental_result = 70

[[record]]
compound = "Cc1cc(C)c(C2C(=O)CC(CC(=O)NCC3CC3)C2=O)c(C)c1 (stereo not drawn)"
experimental_result = 90

[[record]]
compound = "Cc1cc(-c2ncc(Cl)cc2F)cc(C)c1C1C(=O)CC(CC(=O)NCc2ncccc2Cl)C1=O (stereo not drawn)"
experimental_result = 90

[[record]]
compound = "Cc1cc(C)c(C2C(=O)CC(CC(=O)NCc3ccccc3)C2=O)c(C)c1 (stereo not drawn)"
experimental_result = 50

[[record]]
compound = "CC#Cc1cc(C)c(C2C(=O)CC(CC(=O)N(C)CCC)C2=O)c(C)c1 (stereo not drawn)"
experimental_result = 100

[[record]]
compound = "Cc1cc(C)c(C2C(=O)CC(CC(=O)N3CCCCC3)C2=O)c(C)c1 (stereo not drawn)"
experimental_result = 60


====

# System: Lolium perenne (LOLPE)
# Protocol Details: Glasshouse assay for herbicidal activity (pre- and post-emergence), percentage phytotoxicity
# Format: in vivo
# Condition Parameters: Lolium perenne, post-emergence, 360 h, POST-emergence, rate 250 g/ha, visual score 15 DAA (100%=total damage, 0%=no damage); read-out: Post-emergence herbicidal activity (percentage phytotoxicity) LOLPE POST
Measured pest or weed control at 250 g/ha, listed per entry.
Readout: pest or weed control at 250 g/ha (%)

[[record]]
molecule = "C=C(C)CNC(=O)CC1CC(=O)C(c2c(C)cc(-c3ncc(Br)cn3)cc2C)C1=O (stereo not drawn)"
experimental_result = 100

[[record]]
molecule = "Cc1cc(-n2cc(Cl)cn2)cc(C)c1C1C(=O)CC(CC(=O)N(C)C(C)(C)C)C1=O (stereo not drawn)"
experimental_result = 70

[[record]]
molecule = "C=C(C)CNC(=O)CC1CC(=O)C(c2c(C)cc(-c3ccc(Br)cn3)cc2C)C1=O (stereo not drawn)"
experimental_result = 90

[[record]]
molecule = "COCC(C)(C)NC(=O)CC1CC(=O)C(c2c(C)cc(C)cc2C)C1=O (stereo not drawn)"
experimental_result = 80

[[record]]
molecule = "CCNC(=O)CC1CC(=O)C(c2c(C)cc(-c3ccc(Cl)cn3)cc2C)C1=O (stereo not drawn)"
experimental_result = 100

[[record]]
molecule = "CCC(C)NC(=O)CC1CC(=O)C(c2c(C)cc(-n3cc(Cl)cn3)cc2C)C1=O (stereo not drawn)"
experimental_result = 80

[[record]]
molecule = "C#CCNC(=O)CC1CC(=O)C(c2c(C)cc(-n3cc(Cl)cn3)cc2C)C1=O (stereo not drawn)"
experimental_result = 90

[[record]]
molecule = "COCC(C)NC(=O)CC1CC(=O)C(c2c(C)cc(-n3cc(Cl)cn3)cc2C)C1=O (stereo not drawn)"
experimental_result = 60

[[record]]
molecule = "CCNC(=O)CC1CC(=O)C(c2c(C)cc(-c3ncc(F)cn3)cc2C)C1=O (stereo not drawn)"
experimental_result = 100

[[record]]
molecule = "CCN(C)C(=O)CC1CC(=O)C(c2c(C)cc(OCC(F)(F)F)cc2C)C1=O (stereo not drawn)"
experimental_result = 90

[[record]]
molecule = "C/C=C/c1cc(C)c(C2C(=O)CC(CC(=O)NCc3ccccc3)C2=O)c(CC)c1 (stereo not drawn)"
experimental_result = 80

[[record]]
molecule = "Cc1cc(OCC(F)(F)F)cc(C)c1C1C(=O)CC(CC(=O)N(C)C(C)(C)C)C1=O (stereo not drawn)"
experimental_result = 70


====

# Test system: Lolium perenne (LOLPE)
# Protocol Details: Glasshouse assay for herbicidal activity (pre- and post-emergence), percentage phytotoxicity
# Type: in vivo
# Condition Parameters: Lolium perenne, pre-emergence, 480 h, PRE-emergence, rate 250 g/ha, visual score 20 DAA (100%=total damage, 0%=no damage); read-out: Pre-emergence herbicidal activity (percentage phytotoxicity) LOLPE PRE
# Protocol: Test—Glasshouse Assay for Herbicidal Activity Seeds of a variety of monocotyledonous and dicotyledonous test plants are sown in standard soil in pots. The plants are cultivated for one day (for pre-emergence (PRE)) or for about 12 days (for post-emergence (POST)) under controlled conditions in a glasshouse (warm climate species at 24/18° C., cool climate species at 20/16° C., both at day/night; 16 hours light; 65% humidity). […]
List of pest or weed control at 250 g/ha values.
Readout: pest or weed control at 250 g/ha

[[record]]
compound = "CCc1cc(C)cc(C)c1C1C(=O)CC(CC(=O)NCc2ccc(OC)cc2)C1=O (centres unmarked) [Compound B253]"
experimental_result = "90%"

[[record]]
compound = "Cc1cc(-c2ncc(F)cc2F)cc(C)c1C1C(=O)CC(CC(=O)NC2CC2F)C1=O (centres unmarked) [Compound B289]"
experimental_result = "100%"

[[record]]
compound = "CCc1cc(-n2cc(Cl)cn2)cc(C)c1C1C(=O)CC(CC(=O)NCc2cccc(F)c2)C1=O (centres unmarked) [Compound B232]"
experimental_result = "90%"

[[record]]
compound = "CCc1cc(C)cc(C)c1C1C(=O)CC(CC(=O)N(C)C(C)(C)C)C1=O (centres unmarked) [Compound B259]"
experimental_result = "100%"

[[record]]
compound = "COc1ccc(CNC(=O)CC2CC(=O)C(c3c(C)cc(OCC(F)(F)F)cc3C)C2=O)cc1 (centres unmarked) [Compound B206]"
experimental_result = "80%"

[[record]]
compound = "Cc1cc(-c2ncc(F)cc2F)cc(C)c1C1C(=O)CC(CC(=O)NC/C=C/Cl)C1=O (centres unmarked) [Compound B290]"
experimental_result = "100%"

[[record]]
compound = "CCc1cc(C)cc(C)c1C1C(=O)CC(CC(=O)NCC2CC2)C1=O (centres unmarked) [Compound B257]"
experimental_result = "100%"

[[record]]
compound = "CCNC(=O)CC1CC(=O)C(c2c(C)cc(-n3cc(Cl)cn3)cc2C)C1=O (centres unmarked) [Compound B307]"
experimental_result = "100%"


====

# Test system: Avena fatua (AVEFA)
# Protocol Details: Glasshouse assay for herbicidal activity (pre- and post-emergence), percentage phytotoxicity
# Assay type: in vivo
# Condition Parameters: Avena fatua, pre-emergence, 480 h, Rate 250 g/ha; pre-emergence; assessed visually 20 DAA; 100%=total damage, 0%=no damage; read-out: Pre-emergence herbicidal activity (percentage phytotoxicity) AVEFA PRE
Readout: pest or weed control at 250 g/ha (%)

[[record]]
compound = "CCC(C)NC(=O)CC1CC(=O)C(c2c(C)cc(C)cc2C)C1=O (stereo not shown) [Compound A3]"
scale_unit = "%"
experimental_result = 90

[[record]]
compound = "CC#Cc1cc(C)c(C2C(=O)CC(CC(=O)NC(C)CC)C2=O)c(C)c1 (stereo not shown) [Compound A33]"
scale_unit = "%"
experimental_result = 100

[[record]]
compound = "Cc1cc(C)c(C2C(=O)CC(CC(=O)NCc3ccccc3)C2=O)c(C)c1 (stereo not shown) [Compound A4]"
scale_unit = "%"
experimental_result = 30

[[record]]
compound = "Cc1cc(-c2cncnc2)cc(C)c1C1C(=O)CC(CC(=O)NCc2cccc(Cl)c2)C1=O (stereo not shown) [Compound A142]"
scale_unit = "%"
experimental_result = 0

[[record]]
compound = "CC#Cc1cc(C)c(C2C(=O)CC(CC(=O)NC(C)(C)C)C2=O)c(C)c1 (stereo not shown) [Compound A31]"
scale_unit = "%"
experimental_result = 90

[[record]]
compound = "Cc1cc(C)c(C2C(=O)CC(CC(=O)NCCc3ccccc3)C2=O)c(C)c1 (stereo not shown) [Compound A1]"
scale_unit = "%"
experimental_result = 60

[[record]]
compound = "CC#Cc1cc(C)c(C2C(=O)CC(CC(=O)NC(C)(C)CC)C2=O)c(C)c1 (stereo not shown) [Compound A60]"
scale_unit = "%"
experimental_result = 100

[[record]]
compound = "CC#Cc1cc(C)c(C2C(=O)CC(CC(=O)NCc3cnc(C)cn3)C2=O)c(C)c1 (stereo not shown) [Compound A144]"
scale_unit = "%"
experimental_result = 90

[[record]]
compound = "COCC#CC(C)(C)NC(=O)CC1CC(=O)C(c2c(C)cc(C)cc2C)C1=O (stereo not shown) [Compound A104]"
scale_unit = "%"
experimental_result = 0

[[record]]
compound = "Cc1cc(C)c(C2C(=O)CC(CC(=O)NCc3ncccc3Cl)C2=O)c(C)c1 (stereo not shown) [Compound A107]"
scale_unit = "%"
experimental_result = 10

[[record]]
compound = "Cc1cc(-c2ncc(F)cn2)cc(C)c1C1C(=O)CC(CC(=O)NCc2ccc(C(F)(F)F)nc2)C1=O (stereo not shown) [Compound A136]"
scale_unit = "%"
experimental_result = 90

[[record]]
compound = "CCCNC(=O)CC1CC(=O)C(c2c(C)cc(C)cc2C)C1=O (stereo not shown) [Compound A26]"
scale_unit = "%"
experimental_result = 70

[[record]]
compound = "Cc1cc(-c2cnc(Cl)cn2)cc(C)c1C1C(=O)CC(CC(=O)NCc2cccs2)C1=O (stereo not shown) [Compound A148]"
scale_unit = "%"
experimental_result = 80

[[record]]
compound = "C#Cc1cc(C)c(C2C(=O)CC(CC(=O)NC(C)CC)C2=O)c(C)c1 (stereo not shown) [Compound A9]"
scale_unit = "%"
experimental_result = 90

[[record]]
compound = "CC#Cc1cc(C)c(C2C(=O)CC(CC(=O)N(C)CCC)C2=O)c(CC)c1 (stereo not shown) [Compound A79]"
scale_unit = "%"
experimental_result = 100

[[record]]
compound = "COCCNC(=O)CC1CC(=O)C(c2c(C)cc(-n3cc(Cl)cn3)cc2C)C1=O (stereo not shown) [Compound A77]"
scale_unit = "%"
experimental_result = 80

[[record]]
compound = "Cc1cc(C)c(C2C(=O)CC(CC(=O)NCC3CC3)C2=O)c(C)c1 (stereo not shown) [Compound A19]"
scale_unit = "%"
experimental_result = 70

[[record]]
compound = "C=CCCNC(=O)CC1CC(=O)C(c2c(C)cc(C#CC)cc2C)C1=O (stereo not shown) [Compound A57]"
scale_unit = "%"
experimental_result = 90

[[record]]
compound = "Cc1cc(C)c(C2C(=O)CC(C(C)C(=O)NCc3cccc(C(F)(F)F)c3)C2=O)c(C)c1 (stereo not shown) [Compound A166]"
scale_unit = "%"
experimental_result = 20

[[record]]
compound = "CC#Cc1cc(C)c(C2C(=O)CC(CC(=O)NCC(C)(C)C)C2=O)c(C)c1 (stereo not shown) [Compound A65]"
scale_unit = "%"
experimental_result = 70

[[record]]
compound = "CCN(C)C(=O)CC1CC(=O)C(c2c(C)cc(C)cc2C)C1=O (stereo not shown) [Compound A160]"
scale_unit = "%"
experimental_result = 80

[[record]]
compound = "Cc1cc(-n2cc(Cl)cn2)cc(C)c1C1C(=O)CC(CC(=O)NC2(c3ccccn3)CC2)C1=O (stereo not shown) [Compound A73]"
scale_unit = "%"
experimental_result = 10

[[record]]
compound = "Cc1cc(-c2ncc(Cl)cc2F)cc(C)c1C1C(=O)CC(CC(=O)NCc2ccsc2Br)C1=O (stereo not shown) [Compound A127]"
scale_unit = "%"
experimental_result = 20

[[record]]
compound = "CC#Cc1cc(C)c(C2C(=O)CC(CC(=O)NCC(C)(C)C)C2=O)c(CC)c1 (stereo not shown) [Compound A53]"
scale_unit = "%"
experimental_result = 80

[[record]]
compound = "Cc1cnc(CNC(=O)CC2CC(=O)C(c3c(C)cc(-c4ncc(F)cn4)cc3C)C2=O)cn1 (stereo not shown) [Compound A157]"
scale_unit = "%"
experimental_result = 70

